Collected pA2 values appear next to each entry.
# TARGET UNDER TEST: Adrenergic receptor alpha-1 (Rattus norvegicus, UniProt P15823+P23944+P43140)
# MEASUREMENT PROTOCOL: Ability to block alpha-1 adrenergic receptor-mediated contractions of rat aorta.
# Assay type: functional
METRIC NAME: pA2

MOL SMILES: CN1C[C@H](COC(=O)C2CCCCC2)C[C@@H]2c3cccc4[nH]cc(c34)C[C@H]21.O=C(O)/C=C\C(=O)O
VALUE OBSERVED: 5.62
//
MOL SMILES: CN1C[C@H](COC(=O)C2CCCC2)C=C2c3cccc4[nH]cc(c34)C[C@H]21.O=C(O)/C=C\C(=O)O
VALUE OBSERVED: 5.32
//
MOL SMILES: CC(C)n1cc2c3c(cccc31)[C@H]1C[C@@H](COC(=O)C3CCCC3)CN(C)[C@@H]1C2.O=C(O)/C=C\C(=O)O
VALUE OBSERVED: 4.68
//
MOL SMILES: CN1C[C@H](COC(=O)C2CCCCCC2)C[C@@H]2c3cccc4[nH]cc(c34)C[C@H]21.O=C(O)/C=C\C(=O)O
VALUE OBSERVED: 4.86
//
MOL SMILES: CN1C[C@H](COC(=O)C2CCCCCC2)C=C2c3cccc4[nH]cc(c34)C[C@H]21.O=C(O)/C=C\C(=O)O
VALUE OBSERVED: 4.73
//
MOL SMILES: CC(C)n1cc2c3c(cccc31)[C@H]1C=C(CO)CN(C)[C@@H]1C2.O=C(O)/C=C\C(=O)O
VALUE OBSERVED: 5.69
//
MOL SMILES: CC(C)n1cc2c3c(cccc31)C1=C[C@@H](COC(=O)C3CCCCC3)CN(C)[C@@H]1C2.O=C(O)/C=C\C(=O)O
VALUE OBSERVED: 4.77
//
MOL SMILES: CN1CC(COC(=O)C2CCCCCC2)=C[C@@H]2c3cccc4[nH]cc(c34)C[C@H]21.O=C(O)/C=C\C(=O)O
VALUE OBSERVED: 5.05
//
MOL SMILES: CC(C)n1cc2c3c(cccc31)[C@H]1C=C(COC(=O)C3CCC3)CN(C)[C@@H]1C2.O=C(O)/C=C\C(=O)O
VALUE OBSERVED: 4.69
